Source of measurements: paper PMC9165588

target: HAT domain (1195-1673) of human p300 (Homo sapiens, UniProt Q09472); assay: p300 HAT inhibition assay; type: biochemical; details: initial screen at 10 μM
Sequence (Q09472 1195-1673): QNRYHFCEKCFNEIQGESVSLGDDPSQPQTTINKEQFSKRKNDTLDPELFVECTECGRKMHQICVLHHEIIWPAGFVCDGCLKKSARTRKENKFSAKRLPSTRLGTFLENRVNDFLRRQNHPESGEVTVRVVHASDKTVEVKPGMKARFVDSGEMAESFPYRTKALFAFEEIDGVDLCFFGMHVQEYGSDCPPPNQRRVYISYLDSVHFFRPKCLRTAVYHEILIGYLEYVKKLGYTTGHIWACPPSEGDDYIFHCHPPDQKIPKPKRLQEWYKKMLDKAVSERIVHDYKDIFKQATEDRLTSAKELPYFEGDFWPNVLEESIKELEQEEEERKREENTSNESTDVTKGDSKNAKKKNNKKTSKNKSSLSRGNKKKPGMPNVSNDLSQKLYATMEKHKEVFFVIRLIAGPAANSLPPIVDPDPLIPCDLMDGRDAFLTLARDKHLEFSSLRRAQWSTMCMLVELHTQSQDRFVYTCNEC
measured-property: inhibitory activity against p300 HAT (in words)

{"compound": "NCCOc1cnc(-c2ccc(Br)cc2)c(-c2ccc(Br)cc2)n1 [Compound 8]", "observed": "weak inhibitors"}
{"compound": "CNCCOc1cnc(-c2ccc(Br)cc2)c(-c2ccc(Br)cc2)n1 [Compound 9]", "observed": "weak inhibitors"}
